# EXPERIMENT_DESCRIPTION: Preliminary liver microsomal stability testing
# Format: in vitro ADME, Mouse
# TEST_SETTINGS: pH 7.4; Mouse liver microsomes 0.33 mg/mL, 0.1 μM compound
VALUE_TYPE: half-life at 0.1 μM (min)
State the answer as a number, implicitly in min.

Field: example entries. Status: answers known.
INSERT INTO results (compound, value_type, number) VALUES
  ('C[C@H]1[C@@H](c2cc(C(F)(F)F)cc(C(F)(F)F)c2)OC(=O)N1C(=O)CCn1ccc(=O)c2cccnc21 [Compound 18a]', 'half-life at 0.1 μM', 0.69),
  ('C[C@H]1[C@@H](c2cc(C(F)(F)F)cc(C(F)(F)F)c2)OC(=O)N1C(=O)CCN1CCCc2ccccc21 [Compound 10]', 'half-life at 0.1 μM', 1.18);

# ---- query compound ----
Suppose we examine the compound COc1cc(C(F)(F)F)cc([C@H]2OC(=O)N(C(=O)CCn3ccc(=O)c4cccnc43)[C@H]2C)n1 [Compound 18b] ; what half-life at 0.1 μM value has been reported?
1.66

Reference source for all entries: paper PMC11993615
